test.system: Pax6 DNA-binding domain (BD-Pax6) (Mus musculus (B6), UniProt P63015 190-289)
Sequence (P63015 190-289): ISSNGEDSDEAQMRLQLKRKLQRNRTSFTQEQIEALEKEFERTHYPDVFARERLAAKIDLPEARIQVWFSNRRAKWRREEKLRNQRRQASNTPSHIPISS
assay.protocol: EMSA; 10% glycerol, 20 mM HEPES pH 7.8, 45 mM KCl, 10 mM NaCl, 1 mM EDTA, 1 mM DTT, 0.2 ug/uL BSA, 0.1% NP-40, 50 ng poly-dIdC; 20 ng each GST protein; room temperature 30 min (heterodimers 4 C); 6% PAGE 0.25x TBE
experimental.parameters: protein: recombinant; tags: GST (N-terminal, pGEX-6P-1); label: 32P-dCTP fill-in of the 5' (dG)5 overhangs of both strands (Methods; control probes are given with GGG)
observation.type: binding result

1) 111 (dsDNA) DNA 1: GGGGGTTCAACCTTTTGTTGTATCATTTAAAAAACATTCCCCC DNA 2: GGGGGAATGTTTTTTAAATGATACAACAAAAGGTTGAACCCCC : no binding
2) 17 (dsDNA) DNA 1: GGGGGTTTAAAGATTTGTTTCTTTATTATATGTAAGTACCCCC DNA 2: GGGGGTACTTACATATAATAAAGAAACAAATCTTTAAACCCCC : no binding
3) 128 (dsDNA) DNA 1: GGGGGAATATCAGTGTAATGATTAACAGACAATGGCAGAGGCCCCC DNA 2: GGGGGCCTCTGCCATTGTCTGTTAATCATTACACTGATATTCCCCC : binds
4) 36 (dsDNA) DNA 1: GGGGGTGCATACATTTGTAATTCATTTAGGTGGTTTTCCCCC DNA 2: GGGGGAAAACCACCTAAATGAATTACAAATGTATGCACCCCC : binds
5) 2 (dsDNA) DNA 1: GGGGGGCCATAGAATTGTACTTCTGTCACCAGTTTTATTTTTTTATTTCCCCC DNA 2: GGGGGAAATAAAAAAATAAAACTGGTGACAGAAGTACAATTCTATGGCCCCCC : no binding

Continue with the binder presented below.
Could you share which binding result value was measured for 31 (dsDNA) DNA 1: GGGGGTCCTCTCCTTTGTTTTGTCCTCACACCCCCAGCTGACCAGGTGCCCCC DNA 2: GGGGGCACCTGGTCAGCTGGGGGTGTGAGGACAAAACAAAGGAGAGGACCCCC ?
no binding
